// data source = patent US20240066131A1

Listed here are binders together with their documented FPN IC50.
TEST_SYSTEM: T1, human ferroportin (SLC40A1) fused in frame with GFP, stably expressed in HEK293 cells (human, UniProt Q9NP59 1-571)
T1 sequence (looked up): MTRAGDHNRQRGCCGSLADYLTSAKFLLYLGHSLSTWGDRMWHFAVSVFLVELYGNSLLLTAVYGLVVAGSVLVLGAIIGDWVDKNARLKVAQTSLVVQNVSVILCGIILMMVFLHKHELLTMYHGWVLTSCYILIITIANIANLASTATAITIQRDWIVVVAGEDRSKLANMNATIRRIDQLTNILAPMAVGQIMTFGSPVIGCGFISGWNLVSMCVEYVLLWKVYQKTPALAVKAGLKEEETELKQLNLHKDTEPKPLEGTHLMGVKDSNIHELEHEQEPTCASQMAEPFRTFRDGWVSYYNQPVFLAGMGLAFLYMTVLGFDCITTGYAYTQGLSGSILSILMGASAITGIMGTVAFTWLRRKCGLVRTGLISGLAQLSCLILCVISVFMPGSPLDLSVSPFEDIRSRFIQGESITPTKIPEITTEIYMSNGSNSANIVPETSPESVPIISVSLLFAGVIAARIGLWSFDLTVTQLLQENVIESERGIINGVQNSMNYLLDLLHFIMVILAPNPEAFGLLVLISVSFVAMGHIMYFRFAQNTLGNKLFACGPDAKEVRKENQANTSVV
MEASUREMENT_DESCRIPTION: cell-based or functional assay
Non-standard residues stand in square brackets, D forms with d. Groups on a side chain read outwards from the residue. *: point of attachment. Dip = N[C@H](C(=O)O)C(c1ccccc1)c1ccccc1; Palmitoyl = CCCCCCCCCCCCCCCC(=O)*; β3hF = N[C@H](CC(=O)O)Cc1ccccc1; Isovaleryl = CC(C)CC(=O)*; Ahx = NCCCCCC(=O)O
Report the figure in nM without appending any unit label.

binder="Isovaleryl-LTH[Dip]PLIK([Ahx-Palmitoyl])L-NH2 (SMILES CCCCCCCCCCCCCCCC(=O)NCCCCCC(=O)NCCCC[C@H](NC(=O)[C@@H](NC(=O)[C@H](CC(C)C)NC(=O)[C@@H]1CCCN1C(=O)[C@@H](NC(=O)[C@H](Cc1c[nH]cn1)NC(=O)[C@@H](NC(=O)[C@H](CC(C)C)NC(=O)CC(C)C)[C@@H](C)O)C(c1ccccc1)c1ccccc1)[C@@H](C)CC)C(=O)N[C@@H](CC(C)C)C(N)=O) [Isovaleric Acid-L-T-H-[Dpa]-P-L-I-[Lys(Ahx_Palm)]-L-NH2]" u=nM experimental_value=342

Q. Please supply the value of reported FPN IC50 for the item Isovaleryl-K([Ahx-Palmitoyl])TH[Dip]PAI[dK][β3hF]-NH2 (SMILES CCCCCCCCCCCCCCCC(=O)NCCCCCC(=O)NCCCC[C@H](NC(=O)CC(C)C)C(=O)N[C@H](C(=O)N[C@@H](Cc1c[nH]cn1)C(=O)N[C@H](C(=O)N1CCC[C@H]1C(=O)N[C@@H](C)C(=O)N[C@H](C(=O)N[C@H](CCCCN)C(=O)N[C@H](CC(N)=O)Cc1ccccc1)[C@@H](C)CC)C(c1ccccc1)c1ccccc1)[C@@H](C)O) [Isovaleric Acid-[Lys(Ahx_Palm)]-T-H-[Dpa]-P-A-I-[(D)Lys]-[bhPhe]-NH2; 2]
A. 654
